Test system: RAW-Dual (murine macrophage reporter line)
Assay: viability score (confluency relative to resting cells, overnight) (fraction); higher = more viable, active = viable (0.7 or more)
Conditions: modulator concentration 10 µM
Recorded viability score for the following compounds
Enter a number only.

Previously resolved entries follow.
[
  {
    "compound": "CCOc1ccc(S(=O)(=O)NC(C)(C)C)cc1C",
    "viability score": 0.868
  },
  {
    "compound": "Br.CN(C)CCCC1(c2ccc(F)cc2)OCc2cc(C#N)ccc21 (stereo not drawn)",
    "viability score": 0.979
  },
  {
    "compound": "O=[N+]([O-])c1ccc2nc(Cl)sc2c1",
    "viability score": 0.638
  },
  {
    "compound": "Cc1cc(C)n(-c2ccc(=O)n(CCNS(=O)(=O)c3ccccc3F)n2)n1",
    "viability score": 1
  }
]

Please look at the following compound next.
Dear colleague, I am looking for the recorded viability score of the following compound: COc1ccc(CNc2nc(N3CCC[C@H]3CO)ncc2C(=O)NCc2ncccn2)cc1Cl
1

Taken from the supplement of paper PMC10646978.
